Molecular target: Bombesin receptor subtype-3 (Mus musculus, UniProt O54798)
Sequence (O54798 whole entry): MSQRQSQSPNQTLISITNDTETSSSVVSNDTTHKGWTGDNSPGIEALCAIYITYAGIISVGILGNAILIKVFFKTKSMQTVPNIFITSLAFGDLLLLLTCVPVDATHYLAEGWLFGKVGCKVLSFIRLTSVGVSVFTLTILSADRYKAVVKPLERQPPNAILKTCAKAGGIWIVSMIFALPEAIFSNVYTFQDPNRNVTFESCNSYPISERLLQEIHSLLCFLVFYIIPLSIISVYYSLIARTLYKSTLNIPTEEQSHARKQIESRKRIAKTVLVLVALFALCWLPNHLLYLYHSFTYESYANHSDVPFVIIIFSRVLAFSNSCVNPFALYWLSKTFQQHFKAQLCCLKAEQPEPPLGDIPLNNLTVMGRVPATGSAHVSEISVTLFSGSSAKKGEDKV
Experiment: Agonist activity at mouse BRS3
Doc: threshold 10 nM (exclusive). Items with EC50 beneath it return fulfilled; others return not fulfilled.

Input: A record lists `CCC(C)(C)Cc1c[nH]c(CCc2ccc(-c3ccccc3OCc3nnn[nH]3)cc2)n1` . Is its EC50 below 10 nM?
Output: fulfilled

Input: A record lists `CCC(C)(C)Cc1c[nH]c(CCc2ccc(-c3ccccc3OCc3nc(=S)[nH][nH]3)cc2)n1` . Is its EC50 below 10 nM?
Output: fulfilled

Input: A record lists `c1ccc(-c2nnn[nH]2)c(-c2ccc(CCc3ncc(CC4CCCC4)[nH]3)cc2)c1` . Is its EC50 below 10 nM?
Output: not fulfilled

Input: A record lists `CCC(C)(C)Cc1c[nH]c(CCc2ccc(-c3ccccc3OCc3nc(N)n[nH]3)cc2)n1` . Is its EC50 below 10 nM?
Output: fulfilled

Input: A record lists `CCC(C)(C)Cc1cnc(CCc2ccc(N3CCCC[C@@H]3c3nnc[nH]3)cc2)[nH]1` . Is its EC50 below 10 nM?
Output: not fulfilled

Input: A record lists `CCC(C)(C)Cc1cnc(CCc2ccc3c(c2)CN(C)C(=O)c2ccccc2-3)[nH]1` . Is its EC50 below 10 nM?
Output: not fulfilled

Input: A record lists `CCC(C)(C)Cc1c[nH]c(CCc2ccc(N3CCCc4cn[nH]c43)cc2)n1` . Is its EC50 below 10 nM?
Output: not fulfilled

Input: A record lists `CCC(C)(C)Cc1cnc(CCc2ccc3c(c2)CNC(=O)c2ccccc2-3)[nH]1` . Is its EC50 below 10 nM?
Output: not fulfilled

Input: A record lists `CCC(C)(C)Cc1c[nH]c(CCc2ccc(N3CCCC[C@@H]3c3nnn[nH]3)cc2)n1` . Is its EC50 below 10 nM?
Output: not fulfilled

The measurements presented in this section are drawn from ChEMBL document CHEMBL1157884.
